PROTOCOL TEXT: in vitro
ASSAY CONDITIONS: human, HepG2 cells
Description: Cytotoxicity against human HepG2 cells assessed as cell viability at 10 uM after 24 hrs by MTT assay relative to control
# viability at 24 h, 10 µM values compiled below
Number only, in %; omit the unit.

As a guide, the following entries are already answered.
>  <COMPOUND>
Nc1c2c(nc3c1C(c1ccc(Br)cc1)n1c(=O)c4ccccc4c(=O)n1-3)CCCC2 (stereo not given)

>  <PROPERTY NAME>
viability at 24 h, 10 µM

>  <ENDPOINT VALUE>
97.6

$$$$
>  <COMPOUND>
Nc1c2c(nc3c1C(c1ccc(F)cc1)n1c(=O)c4ccccc4c(=O)n1-3)CCCC2 (stereo not given)

>  <PROPERTY NAME>
viability at 24 h, 10 µM

>  <ENDPOINT VALUE>
83.3

$$$$
>  <COMPOUND>
COc1ccccc1C1c2c(nc3c(c2N)CCCC3)-n2c(=O)c3ccccc3c(=O)n21 (stereo not given)

>  <PROPERTY NAME>
viability at 24 h, 10 µM

>  <ENDPOINT VALUE>
95.2

$$$$
>  <COMPOUND>
Nc1c2c(nc3c1C(c1ccc(Cl)cc1)n1c(=O)c4ccccc4c(=O)n1-3)CCCC2 (stereo not given)

>  <PROPERTY NAME>
viability at 24 h, 10 µM

>  <ENDPOINT VALUE>
95.1

$$$$

Then there is this compound:
Find the measured viability at 24 h, 10 µM of Nc1c2c(nc3c1C(c1cccc(F)c1)n1c(=O)c4ccccc4c(=O)n1-3)CCCC2 (stereo not given) and report it. 86.1
